test: AUC (0 to 24 hrs) in C57BL/6 mouse infected with Clostridioides difficile CD1264 at 50 mg/kg,po administrated upto 24 hrs by LC-MS/MS analysis; assay type: ADME, organism-based; conditions: in vivo
Quantity: AUC(0-t) at 24 h

>>> result("O=C(O)c1cn(C2CC2)c2cc(N3CCC(O)(COc4ccc(N5C[C@H](CO)OC5=O)cc4F)CC3)c(F)cc2c1=O [CADAZOLID]")
"147 ng·h/mL"

---

test: Clearance in Wistar rat blood at 1 mg/kg,po administration; assay type: ADME, organism-based
Quantity: CL/F

>>> result("O=C(O)c1cn(C2CC2)c2cc(N3CCC(O)(COc4ccc(N5C[C@H](CO)OC5=O)cc4F)CC3)c(F)cc2c1=O")
"96 mL/min/kg"

---

assay: Cmax in C57BL/6 mouse at 50 mg/kg,po administrated upto 24 hrs by LC-MS/MS analysis; assay type: ADME, organism-based; conditions: in vivo
Quantity: Cmax

>>> result("O=C(O)c1cn(C2CC2)c2cc(N3CCC(O)(COc4ccc(N5C[C@H](CO)OC5=O)cc4F)CC3)c(F)cc2c1=O")
"6 ng/mL"

---

test: Oral bioavailability in Wistar rat plasma at 50 mg/kg administration; assay type: ADME, organism-based
Quantity: bioavailability (%)

>>> numeric_result("O=C(O)c1cn(C2CC2)c2cc(N3CCC(O)(COc4ccc(N5C[C@H](CO)OC5=O)cc4F)CC3)c(F)cc2c1=O")
0

---

experiment: Lipophilicity, logD of the compound at pH 7.4; type: physicochemical; settings: buffer
Quantity: logD

>>> numeric_result("O=C(O)c1cn(C2CC2)c2cc(N3CCC(O)(COc4ccc(N5C[C@H](CO)OC5=O)cc4F)CC3)c(F)cc2c1=O")
1.2

---

assay: Cmax in C57BL/6 mouse at 10 mg/kg,po administrated upto 24 hrs by LC-MS/MS analysis; assay type: ADME, organism-based; conditions: in vivo
Quantity: Cmax

>>> result("O=C(O)c1cn(C2CC2)c2cc(N3CCC(O)(COc4ccc(N5C[C@H](CO)OC5=O)cc4F)CC3)c(F)cc2c1=O")
"3 ng/mL"

---

experiment: AUC (0 to 24 hrs) in C57BL/6 mouse infected with Clostridioides difficile CD1264 at 10 mg/kg,po administrated upto 24 hrs by LC-MS/MS analysis; assay type: ADME, organism-based; conditions: in vivo
Quantity: AUC(0-t) at 24 h (ng·h/mL)

>>> numeric_result("O=C(O)c1cn(C2CC2)c2cc(N3CCC(O)(COc4ccc(N5C[C@H](CO)OC5=O)cc4F)CC3)c(F)cc2c1=O [CADAZOLID]")
27

---

test: AUC (0 to 24 hrs) in C57BL/6 mouse at 50 mg/kg,po administrated upto 24 hrs by LC-MS/MS analysis; type: ADME, organism-based; conditions: in vivo
Quantity: AUC(0-t) at 24 h (ng·h/mL)

>>> numeric_result("O=C(O)c1cn(C2CC2)c2cc(N3CCC(O)(COc4ccc(N5C[C@H](CO)OC5=O)cc4F)CC3)c(F)cc2c1=O")
78

---

test: Dissociation constant, pKa of the compound; assay type: physicochemical
Quantity: pKa

>>> numeric_result("O=C(O)c1cn(C2CC2)c2cc(N3CCC(O)(COc4ccc(N5C[C@H](CO)OC5=O)cc4F)CC3)c(F)cc2c1=O")
6

Attribution: ChEMBL document CHEMBL5512670
